- system-tested: rat GLP-1 receptor (rat) (UniProt P32301)
- Sequence (P32301 22-463): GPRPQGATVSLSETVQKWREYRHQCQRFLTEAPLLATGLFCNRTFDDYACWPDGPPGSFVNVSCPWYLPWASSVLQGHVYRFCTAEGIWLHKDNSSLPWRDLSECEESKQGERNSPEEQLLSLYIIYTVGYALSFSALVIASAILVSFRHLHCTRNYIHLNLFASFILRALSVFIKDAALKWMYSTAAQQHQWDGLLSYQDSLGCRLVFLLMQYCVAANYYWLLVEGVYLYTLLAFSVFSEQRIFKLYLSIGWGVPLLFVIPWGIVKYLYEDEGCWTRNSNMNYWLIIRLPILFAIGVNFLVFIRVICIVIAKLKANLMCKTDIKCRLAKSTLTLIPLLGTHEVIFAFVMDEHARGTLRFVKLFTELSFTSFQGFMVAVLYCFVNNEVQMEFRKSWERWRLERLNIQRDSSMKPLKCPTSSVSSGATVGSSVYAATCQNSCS
- measurement-notes: cell-based or functional assay
# reported cAMP EC50; entries follow
// return numeric value only (unit: nM, not printed)

Worked set:
IP299 (Fc fusion) YSEGTFISDYSKLLEEEAVRDFVEWLKAGGGGGGGSGGGGSGGGGSGGGGSATHTCPPC: 19
IP334 (Fc fusion) YSEGTFTSDYSIALAAAAQQDFVNWLLKGGGGGGGSGGGGSGGGGSGGGGSGGGGSGGGGSA: 120
IP402 (Fc fusion) YSEGTFISDYSIAMDKIHQQDFVNWLLAQKGSGGGGSGGGGSGGGGSGGGGSGGGGSGGGGSGGGGSACPPC: 11
IP209 (Fc fusion) YSEGTFTSDYSSYMERQAIDEFIAWLLKGGAAAGGSGSTASSGSGSATGGGGAATHTCPPCPAPEF: 0.075
IP315 (Fc fusion) YSEGTFISDYSSYLERQAIDEFIAWLLKGGAAAGGSGSTASSGSGSATGGGGAATHTCPPC: 13

Let's switch to this binder now.
For this binder ( IP350 (Fc fusion) YSEGTFTSDYSKLLERQAIDEFIAGLLKGGGGGGGSGGGGSGGGGSGGGGSGGGGSGGGGSA ), measured cAMP EC50 is 0.21
